Value source: the kinase profiling compilation of Christmann-Franck et al. (2016)

tested-target: IKBKB (human) (UniProt O14920)
Sequence (O14920 whole entry, looked up): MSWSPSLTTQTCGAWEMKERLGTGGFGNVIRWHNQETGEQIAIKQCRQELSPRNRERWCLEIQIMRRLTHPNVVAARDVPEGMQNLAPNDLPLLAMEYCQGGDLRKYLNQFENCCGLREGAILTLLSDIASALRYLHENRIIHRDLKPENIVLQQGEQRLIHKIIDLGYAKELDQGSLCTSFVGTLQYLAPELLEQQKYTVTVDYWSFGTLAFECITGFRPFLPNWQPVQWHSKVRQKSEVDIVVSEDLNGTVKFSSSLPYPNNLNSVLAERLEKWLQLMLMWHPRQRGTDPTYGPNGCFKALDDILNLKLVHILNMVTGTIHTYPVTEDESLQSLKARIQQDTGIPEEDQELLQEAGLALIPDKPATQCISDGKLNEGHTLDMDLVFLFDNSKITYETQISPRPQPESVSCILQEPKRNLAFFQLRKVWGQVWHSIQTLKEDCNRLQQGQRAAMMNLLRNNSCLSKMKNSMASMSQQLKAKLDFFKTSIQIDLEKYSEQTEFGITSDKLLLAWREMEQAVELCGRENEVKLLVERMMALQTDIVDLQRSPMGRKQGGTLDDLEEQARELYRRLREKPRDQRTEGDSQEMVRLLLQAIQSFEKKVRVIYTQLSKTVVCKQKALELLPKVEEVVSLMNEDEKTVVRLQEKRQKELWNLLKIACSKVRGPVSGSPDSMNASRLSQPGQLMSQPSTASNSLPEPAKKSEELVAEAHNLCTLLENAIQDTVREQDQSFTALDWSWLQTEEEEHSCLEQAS
procedure-details: radiometric filter-binding kinase assay, Kinase HotSpot
run-parameters: compound 0.5 µM; ATP 10 µM
We begin with a simple list: items and their reported residual activity.
observation-type: residual activity (%)

molecule: CC(C)(C)c1nc2c3ccc(F)cc3c3c(=O)[nH]ccc3c2[nH]1
tested-target: IKBKB (human) (UniProt O14920)
observation-type: residual activity
recorded-number: 52.1

molecule: O=c1cc(-c2cccc3c2Sc2ccccc2S3)oc(N2CCOCC2)c1
tested-target: IKBKB (human) (UniProt O14920)
observation-type: residual activity
recorded-number: 101

molecule: COc1cc2nccc(Oc3ccc(NC(=S)NC(=O)c4ccccc4C)cc3)c2cc1OC
tested-target: IKBKB (human) (UniProt O14920)
observation-type: residual activity
recorded-number: 99.4

molecule: COc1ccc(-c2cnc3c(-c4ccsc4)cnn3c2)cc1
tested-target: IKBKB (human) (UniProt O14920)
observation-type: residual activity
recorded-number: 99.6

molecule: O=C1Cc2c([nH]c3ccc([N+](=O)[O-])cc23)-c2ccccc2N1
tested-target: IKBKB (human) (UniProt O14920)
observation-type: residual activity
recorded-number: 102

molecule: CS(=O)c1ccc(-c2nc(-c3ccc(F)cc3)c(-c3ccncc3)[nH]2)cc1 (stereo not drawn)
tested-target: IKBKB (human) (UniProt O14920)
observation-type: residual activity
recorded-number: 106

molecule: Oc1ccc(-c2nc(-c3ccc(F)cc3)c(-c3ccncc3)[nH]2)cc1
tested-target: IKBKB (human) (UniProt O14920)
observation-type: residual activity
recorded-number: 110

molecule: Nc1nc(Nc2ccc(S(N)(=O)=O)cc2)nn1C(=O)c1c(F)cccc1F
tested-target: IKBKB (human) (UniProt O14920)
observation-type: residual activity
recorded-number: 105

molecule: O=C1Nc2cc(Br)ccc2/C1=C1/Nc2ccccc2/C1=N\O
tested-target: IKBKB (human) (UniProt O14920)
observation-type: residual activity
recorded-number: 85.4

molecule: O=C(NC(NC(=S)Nc1ccc(F)c([N+](=O)[O-])c1)C(Cl)(Cl)Cl)C(c1ccccc1)c1ccccc1 (stereo not drawn)
tested-target: IKBKB (human) (UniProt O14920)
observation-type: residual activity
recorded-number: 102

molecule: C#Cc1cccc(Nc2ncnc3cc(OCCOC)c(OCCOC)cc23)c1
tested-target: IKBKB (human) (UniProt O14920)
observation-type: residual activity
recorded-number: 83.5

molecule: CCCNC(=O)Nc1ccc(Oc2ncnc3cc(OC)c(OC)cc23)cc1Cl
tested-target: IKBKB (human) (UniProt O14920)
observation-type: residual activity
recorded-number: 100

molecule: Cc1cc2ncc(-c3ccccc3)nc2cc1C
tested-target: IKBKB (human) (UniProt O14920)
observation-type: residual activity
recorded-number: 101
